# System: T1, UNK ZnF1-3 (human, UniProt Q9C0B0 31-174)
# T1 sequence: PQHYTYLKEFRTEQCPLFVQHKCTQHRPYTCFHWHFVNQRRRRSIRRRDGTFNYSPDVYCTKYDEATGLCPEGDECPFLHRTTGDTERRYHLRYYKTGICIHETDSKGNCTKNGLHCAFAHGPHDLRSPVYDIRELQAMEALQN
# Measurement notes: nsRBNS (natural sequence RNA bind-n-seq); RBNS binding buffer (assumed for nsRBNS): 25 mM Tris pH 7.5, 150 mM KCl, 3 mM MgCl2, 0.01% Triton X-100, 500 ug/ml BSA, 20 U/ml SUPERase-In, 4 C; UNK is unkempt and MSI1 is Musashi-1; names of the RNAs are library labels; protein concentration not given here; high values mean tight binding
Over roughly 24,000 sequences, “enrichment r” has its median near 0.99; the highest 2% begin near 3.7. Many of the other results were omitted from the sample, so the highest values are more common in it than they were.
Measurement name: binding signal (enrichment R)

chr16:45382771:45382772:-_ENSMUSG00000022661_ENSMUST00000163230|mus_mus|mus_mus_mus_hu_True|18_78 (ssRNA) RNA: GGGAGUUCUACAGUCCGACGAUCCUGGGUCAUGUUAUAAGACAAAUGGACAGGGAGAGCAUGCUUUUCAAAAAAUGUGAGCUAUUGUCUAAGACUAACAAUAUUUAUCUAGCUAUAUAAAAAUAAGAAAUGAAUAAGUUAAGACAACAGAGGAUUGAGCAUCA ... 10
chr2:242276830:242276831:+_ENSG00000168385_ENST00000391971|hu_mus|FALSE|FALSE (ssRNA) RNA: GGGAGUUCUACAGUCCGACGAUCUAAGGGCUUCAGUCCAUGUCCAAAAGGUGAAAUGAAGUAGAAGCAACAAUGUACCCUGUUAUCAAUGAUGUGACGCCUGUUCAGUCCACUCUCAUCAUGUAGGUAGCGUUCAAACUGCUCCAACAGAGGAUUGAGCAUCA ... 0.794
chr15:42481402:42481403:-_ENSG00000166887_ENST00000318006|hu_hu|FALSE|FALSE (ssRNA) RNA: GGGAGUUCUACAGUCCGACGAUCCUUUGAAACCGUAGUGAUUUGUUGAAAUGUCAAUAGGUCAUGGACAUAAAUGUUAUUUUCUAACAAGCUGACCAGAAUCUUAAACUGGGAAACCACAUGGAUCUGCUGAAUCUUUUUGGACAACAGAGGAUUGAGCAUCA ... 0.563
